propertyName: melting point

> print(dat)
                                   molecule       result
1  CCc1cc(-c2ccc(C(C)=O)cc2)ccc1OC [Compound 38]  69 to 72 °C

Please state melting point for every molecule in the list that follows.
1. CC(=O)c1ccc(Oc2cccnc2)cc1 [Compound 135, 1-(4-(Pyridin-3-yloxy)phenyl)ethanone]
2. CCc1cc(-c2ccc(C(=O)CCC(=O)NCCO)cc2)ccc1O [Compound 37]
3. CCc1cc(-c2ccc(-c3ccn(C)n3)cc2)ccc1OC [Compound 45]
4. CCc1cc(Oc2ccc(C(C)=O)cc2)ccc1OC [Compound 140]
5. O=C(CCC(=O)c1ccc(Oc2ccc(O)cc2)cc1)NCc1cccnc1 [Compound 118]
6. CCc1cc(-c2ccc(-c3cc[nH]n3)cc2)ccc1OC [Compound 44]

[reply]
45 to 50 °C
> 110 °C (dec.)
167 to 170 °C
53 to 56 °C
> 191 °C (dec.)
164 to 168 °C

Please state melting point for every molecule in the list that follows.
1. CC(=O)c1ccc(Oc2ccc(O)cc2)cc1 [Compound 129, 1-(4-(4-Hydroxyphenoxy)phenyl)ethanone]
2. CCc1cc(-c2ccc(-c3ccn(CC(=O)OC)n3)cc2)ccc1OC [Compound 48]
3. CCc1cc(-c2ccc(-c3cc(CCC(=O)NCc4cccnc4)[nH]n3)cc2)ccc1O [Compound 66]
4. CCc1cc(-c2ccc(-c3ccnn3C)cc2)ccc1OC [Compound 46]

[reply]
159 to 161 °C
116 to 120 °C
210 to 214 °C
97 to 100 °C
